- System: GH3-TRE-Luc cell line
- CONDITION: read-out: AC50 (uM) modified / 1000; Tox21_110001=Tox21_303458; viability, 1 nM T3 present, 24 h
RECORDED ENDPOINT: CC50 (µM)
One number for each entry, in µM.

Ask: Reported CC50, compound CCCCCCCOC(=O)c1ccc(O)cc1 [Heptylparaben] : ____
Reply: 50.7

---

- Tested on: GH3-TRE-Luc cell line
- CONDITION: read-out: AC50 (uM) modified / 1000; Tox21_110001=Tox21_303315; viability, 1 nM T3 present, 24 h
RECORDED ENDPOINT: CC50 (µM)
Answers are plain numbers, in µM.

Ask: For CC(C)(c1ccc(OCC2CO2)cc1)c1ccc(OCC2CO2)cc1 (stereo not shown) , what is its reported CC50?
Reply: 61.9
